target: HLA-A*1101 (human); test: inhibition of labelled probe peptide binding to purified HLA; details: remark: other sources report otherwise
Property measured: relative binding ratio

The examples below pair each entry with its known result.
Binder | Property measured | Numeric result
RVRAMAIYK [p53 peptide, position 156, 9 amino acids] | relative binding ratio | 0.73
TSSSPQPK [p53 peptide, position 312, 8 amino acids] | relative binding ratio | 0.0019

(1) TSRHKKLMFK [p53 peptide, position 377, 10 amino acids]
(2) SSCMGGMNRR [p53 peptide, position 240, 10 amino acids]
Of 1 and 2 , which carries the smaller reported relative binding ratio figure? When you have decided, please share the label of that item. 1
(1: 0.0052, 2: 0.086)
